Quick reference: koff of the listed items.
Target: T1, human ST2L extracellular domain with C-terminal His6 tag (human, UniProt Q01638 19-328)
T1 construct: also called huST2L-ECD; ST2L-ECD
T1 sequence: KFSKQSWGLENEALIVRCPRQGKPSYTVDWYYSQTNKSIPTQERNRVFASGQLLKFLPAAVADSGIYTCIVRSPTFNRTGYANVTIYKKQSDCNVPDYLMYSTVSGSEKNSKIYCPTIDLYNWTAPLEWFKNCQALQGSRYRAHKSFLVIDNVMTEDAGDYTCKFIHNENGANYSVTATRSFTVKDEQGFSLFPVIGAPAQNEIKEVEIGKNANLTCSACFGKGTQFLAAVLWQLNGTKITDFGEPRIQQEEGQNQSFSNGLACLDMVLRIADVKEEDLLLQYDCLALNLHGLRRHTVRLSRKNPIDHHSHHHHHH
Test: SPR, mAb captured, ST2L-ECD in solution
Field format: number, assumed s⁻¹, no unit text.

Recorded koff, per entry:
C2521 (antibody, V domains shown, Mouse hybridoma antibody; also called C2521A) VH: QIQLQQSGPELVRPGTSVKISCKASGYTFLTYWMNWVKQRPGQGLEWIGQIFPASGSTYYNEMFKDKATLTVDTSSSTAYMQLSSLTSEDTAVYFCARSENIYYINFQYYFAYWGQGTTLTVSS VL: ILLTQSPAILSVSPGERVSFSCRASQNIGTRMHWYQQRTNGSPRLLIKYASESISGIPSRFSGSGSGTDFTLTISSVESEDIADYYCQQSNTWPFTFGSGTKLEIK	4.9e-05
ST2M49 (antibody, V domains shown, Phage-derived Fab converted to IgG) VH: EVQLVQSGAEVKKPGESLKISCKGSGYSFTSYWIGWVRQMPGKGLEWMGIIYPGDSYTRYSPSFQGQVTISADKSISTAYLQWSSLKASDTAMYYCARIGGMFDYWGQGTLVTVSS VL: EIVLTQSPATLSLSPGERATLSCRASQSVANALAWYQQKPGQAPRLLIYKASNRATGIPARFSGSGSGTDFTLTISSLEPEDFAVYYCQQYYGWPITFGQGTKVEIK	0.000161

# context switch: different binder, same koff
Req: Item ST2M48 (antibody, V domains shown, Phage-derived Fab converted to IgG) VH: EVQLVQSGAEVKKPGESLKISCKGSGYSFTSYWIGWVRQMPGKGLEWMGIIYPGDSYTRYSPSFQGQVTISADKSISTAYLQWSSLKASDTAMYYCARLSGRFDYWGQGTLVTVSS VL: EIVLTQSPATLSLSPGERATLSCRASQSVRDALAWYQQKPGQAPRLLIYFASNRATGIPARFSGSGSGTDFTLTISSLEPEDFAVYYCQQFNTWPITFGQGTKVEIK : provide koff
Resp: 7.33e-05
